Recorded values, source paper PMC7666581.

- Study Target: CheR (classical Td CheR) (Treponema denticola, UniProt Q73PZ7)
- Sequence (Q73PZ7 1-271): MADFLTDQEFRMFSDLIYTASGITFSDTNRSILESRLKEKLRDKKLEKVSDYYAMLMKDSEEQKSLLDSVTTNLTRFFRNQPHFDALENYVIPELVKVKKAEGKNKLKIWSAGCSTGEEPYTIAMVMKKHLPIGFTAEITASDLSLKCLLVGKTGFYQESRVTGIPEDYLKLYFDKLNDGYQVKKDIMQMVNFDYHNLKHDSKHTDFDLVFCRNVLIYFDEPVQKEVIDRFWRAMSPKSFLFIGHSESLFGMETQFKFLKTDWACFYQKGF
Parameter Measured: Kd (µM)
Express it in µM; write the number only.

Task item: Data request, read-out Kd, for C[S+](CC[C@H](N)C(=O)O)C[C@H]1O[C@@H](n2cnc3c(N)ncnc32)[C@H](O)[C@@H]1O (stereo partly shown) [S-adenosylmethionine]
Reply: 20

###

- Study Target: CheW-CheRlike (CheW-Rlike) (Treponema denticola, UniProt F7IUZ1)
- Construct: full-length fusion: N-terminal CheW domain, 28-residue linker, C-terminal CheR-like domain; poly-His tag (pET28a), E. coli BL21(DE3); mainly monomer
- Sequence (F7IUZ1 1-444): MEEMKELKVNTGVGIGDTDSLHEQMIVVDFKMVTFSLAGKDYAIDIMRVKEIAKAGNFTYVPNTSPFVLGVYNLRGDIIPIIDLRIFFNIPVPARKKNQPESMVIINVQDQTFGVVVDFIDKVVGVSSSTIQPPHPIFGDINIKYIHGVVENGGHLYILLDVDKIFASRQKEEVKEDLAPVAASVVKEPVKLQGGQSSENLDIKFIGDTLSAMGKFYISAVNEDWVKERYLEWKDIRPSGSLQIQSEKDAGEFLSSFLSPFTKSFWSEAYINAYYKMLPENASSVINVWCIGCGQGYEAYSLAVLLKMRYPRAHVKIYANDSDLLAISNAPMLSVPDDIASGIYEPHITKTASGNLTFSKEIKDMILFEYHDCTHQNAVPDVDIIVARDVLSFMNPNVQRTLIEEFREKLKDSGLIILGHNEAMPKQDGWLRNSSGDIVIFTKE
- Assay Overview: isothermal titration calorimetry
Parameter Measured: Kd (µM)
Express it in µM; write the number only.

Task item: Item C[S+](CC[C@H](N)C(=O)O)C[C@H]1O[C@@H](n2cnc3c(N)ncnc32)[C@H](O)[C@@H]1O (stereo partly shown) with CheW-CheRlike (CheW-Rlike) (Treponema denticola, UniProt F7IUZ1) - Kd?
Reply: 8.8
